# Tested on: rodent lifetime carcinogenesis bioassay, tumor incidence TD50
# Protocol notes: carcinogenic potency in animals, long-term in vivo studies, CPDB compilation (AID 1745844)
# Measurement context: monkey; strain Cynomolgus [Macaca fascicularis]; both sexes; in feed; site: esophagus; lesion: squamous-cell carcinoma; dosed 928 weeks; study length 1135 weeks
Experimental readout: TD50

Query: Field request: TD50 | item: CN(N=O)C(N)=O
Result: 10.5 mg/kg/day

====

# System: rodent lifetime carcinogenesis bioassay, tumor incidence TD50
# Protocol notes: carcinogenic potency in animals, long-term in vivo studies, CPDB compilation (AID 1745844)
# Measurement context: rat; strain Fischer 344; females; in feed; site: adrenal medulla; lesion: pheochromocytoma benign, bilateral + pheochromocytoma, malignant + pheochromocytoma, benign; dosed 105 weeks; study length 105 weeks
Experimental readout: TD50

Query: Field request: TD50 | item: O=C1OC(c2ccc(O)cc2)(c2ccc(O)cc2)c2ccccc21
Result: 3530 mg/kg/day

====

# System: rodent lifetime carcinogenesis bioassay, tumor incidence TD50
# Protocol notes: carcinogenic potency in animals, long-term in vivo studies, CPDB compilation (AID 1745844)
# Measurement context: mouse; strain Charles River CD1; females; in feed; site: duodenum; lesion: adenocarcinoma; dosed 112 weeks; study length 112 weeks
Experimental readout: TD50

Query: Return TD50 measured with rodent lifetime carcinogenesis bioassay, tumor incidence TD50 given this compound: O=C1c2ccccc2C(=O)N1SC(Cl)(Cl)Cl
Result: 3310 mg/kg/day

====

# Tested on: rodent lifetime carcinogenesis bioassay, tumor incidence TD50
# Protocol notes: carcinogenic potency in animals, long-term in vivo studies, CPDB compilation (AID 1745844)
# Measurement context: hamster; strain Syrian Golden; males; in feed; site: esophagus; lesion: several types; types named in the paper; dosed 94 weeks; study length 94 weeks
Experimental readout: TD50 (mg/kg/day)
Give your result in mg/kg/day as a bare value.

Query: Field request: TD50 | item: NC(=O)C(=Cc1ccc([N+](=O)[O-])o1)c1ccco1
Result: 328

====

# Test system: rodent lifetime carcinogenesis bioassay, tumor incidence TD50
# Protocol notes: carcinogenic potency in animals, long-term in vivo studies, CPDB compilation (AID 1745844)
# Measurement context: mouse; strain B6C3F1; males; in feed; site: thyroid gland; lesion: follicular-cell adenoma + follicular-cell carcinoma; dosed 103 weeks; study length 105 weeks
Active and inactive are the calls of the source. No rule for the calls is given here.
Experimental readout: TD50

Query: Field request: TD50 | item: CCN=c1cc2oc3cc(NCC)c(C)cc3c(-c3ccccc3C(=O)OCC)c-2cc1C
Result: 1210 mg/kg/day (inactive)

====

# Test system: rodent lifetime carcinogenesis bioassay, tumor incidence TD50
# Protocol notes: carcinogenic potency in animals, long-term in vivo studies, CPDB compilation (AID 1745844)
# Measurement context: rat; strain Fischer 344; males; in feed; site: adrenal medulla; lesion: pheochromocytoma, malignant; dosed 104 weeks; study length 104 weeks
Experimental readout: TD50 (mg/kg/day)
Give your result in mg/kg/day as a bare value.

Query: Field request: TD50 | item: COc1cc(S(C)=O)ccc1-c1nc2ccncc2[nH]1 (stereo unspecified)
Result: 481

====

# System: rodent lifetime carcinogenesis bioassay, tumor incidence TD50
# Protocol notes: carcinogenic potency in animals, long-term in vivo studies, CPDB compilation (AID 1745844)
# Measurement context: rat; strain Fischer 344; females; in drinking water; site: skin; lesion: squamous-cell carcinoma; dosed 98 weeks; study length 104 weeks
Experimental readout: TD50 (mg/kg/day)
Give your result in mg/kg/day as a bare value.

Query: Field request: TD50 | item: Cc1ccc(S(=O)(=O)Oc2ccc(N=Nc3ccc(-c4ccc(N=Nc5c(O)ccc6cc(S(=O)(=O)O)cc(S(=O)(=O)O)c56)c(C)c4)cc3C)cc2)cc1
Result: 57.3

====

# System: rodent lifetime carcinogenesis bioassay, tumor incidence TD50
# Protocol notes: carcinogenic potency in animals, long-term in vivo studies, CPDB compilation (AID 1745844)
# Measurement context: rat; strain F344/DuCrj; females; in feed; site: large intestine; lesion: adenocarcinoma; dosed 72 weeks; study length 72 weeks
Experimental readout: TD50

Query: Return TD50 measured with rodent lifetime carcinogenesis bioassay, tumor incidence TD50 given this molecule: Cn1c(N)nc2c3cccnc3ccc21
Result: 19.3 mg/kg/day

====

# System: rodent lifetime carcinogenesis bioassay, tumor incidence TD50
# Protocol notes: carcinogenic potency in animals, long-term in vivo studies, CPDB compilation (AID 1745844)
# Measurement context: rat; strain Fischer 344; females; in feed; site: liver; lesion: neoplastic nodule; dosed 110 weeks; study length 133 weeks
Experimental readout: TD50 (mg/kg/day)
Give your result in mg/kg/day as a bare value.

Query: Return TD50 measured with rodent lifetime carcinogenesis bioassay, tumor incidence TD50 given this compound: CN(C)CCN(Cc1cccs1)c1ccccn1
Result: 11.8

====

# Tested on: rodent lifetime carcinogenesis bioassay, tumor incidence TD50
# Protocol notes: carcinogenic potency in animals, long-term in vivo studies, CPDB compilation (AID 1745844)
# Measurement context: mouse; strain B6C3F1; females; by gavage; site: stomach; lesion: papillomatosis + squamous-cell carcinoma + squamous-cell papilloma; dosed 103 weeks; study length 105 weeks
Experimental readout: TD50

Query: Field request: TD50 | item: c1cc(OCC2CO2)cc(OCC2CO2)c1 (stereo unspecified)
Result: 17.9 mg/kg/day

====

# Tested on: rodent lifetime carcinogenesis bioassay, tumor incidence TD50
# Protocol notes: carcinogenic potency in animals, long-term in vivo studies, CPDB compilation (AID 1745844)
# Measurement context: mouse; strain B6C3F1; males; in drinking water; site: liver; lesion: hyperplastic nodule; dosed 104 weeks; study length 104 weeks
Experimental readout: TD50 (mg/kg/day)
Give your result in mg/kg/day as a bare value.

Query: Field request: TD50 | item: [Na+]
Result: 5970

====

# System: rodent lifetime carcinogenesis bioassay, tumor incidence TD50
# Protocol notes: carcinogenic potency in animals, long-term in vivo studies, CPDB compilation (AID 1745844)
# Measurement context: mouse; strain B6C3F1; females; by gavage; site: all sites + lung + myocardium; lesion: leukemia + lymphoma + alveolar/bronchiolar adenoma + alveolar/bronchiolar carcinoma + sarcoma, NOS; dosed 70 weeks; study length 83 weeks
Experimental readout: TD50

Query: Field request: TD50 | item: CC(C)CCC[C@@H](C)[C@H]1CC[C@H]2[C@@H]3CC=C4C[C@@H](OC(=O)Cc5ccc(N(CCCl)CCCl)cc5)CC[C@]4(C)[C@H]3CC[C@]12C
Result: 0.211 mg/kg/day

====

# Tested on: rodent lifetime carcinogenesis bioassay, tumor incidence TD50
# Protocol notes: carcinogenic potency in animals, long-term in vivo studies, CPDB compilation (AID 1745844)
# Measurement context: mouse; strain B6C3F1; females; inhaled; site: all sites + forestomach + Harderian gland + liver + lung + mesentery + mammary gland + subcutaneous tissue + Zymbal's gland; lesion: hemangioma + hemangiosarcoma + squamous-cell carcinoma + squamous-cell papilloma + adenoma + carcinoma + hepatocellular adenoma + hepa; dosed 104 weeks; study length 104 weeks
Experimental readout: TD50

Query: Return TD50 measured with rodent lifetime carcinogenesis bioassay, tumor incidence TD50 given this compound: C=CC(=C)Cl
Result: 4 mg/kg/day

====

# System: rodent lifetime carcinogenesis bioassay, tumor incidence TD50
# Protocol notes: carcinogenic potency in animals, long-term in vivo studies, CPDB compilation (AID 1745844)
# Measurement context: rat; strain Fischer 344; males; in feed; site: adrenal medulla; lesion: several types; types named in the paper; dosed 104 weeks; study length 104 weeks
Experimental readout: TD50

Query: Field request: TD50 | item: COc1cc(S(C)=O)ccc1-c1nc2ccncc2[nH]1 (stereo unspecified)
Result: 38.8 mg/kg/day

====

# Test system: rodent lifetime carcinogenesis bioassay, tumor incidence TD50
# Protocol notes: carcinogenic potency in animals, long-term in vivo studies, CPDB compilation (AID 1745844)
# Measurement context: mouse; strain C57BL/6; males; in feed; site: all sites; lesion: several types; types named in the paper; dosed 52 weeks; study length 69 weeks
Experimental readout: TD50

Query: Field request: TD50 | item: CCCCCC(N)=O
Result: 1950 mg/kg/day

====

# Test system: rodent lifetime carcinogenesis bioassay, tumor incidence TD50
# Protocol notes: carcinogenic potency in animals, long-term in vivo studies, CPDB compilation (AID 1745844)
# Measurement context: rat; strain Wistar; males; in feed; site: any site (literature study); lesion: benign tumor; dosed 84 weeks; study length 84 weeks
Experimental readout: TD50

Query: Field request: TD50 | item: COc1cc2c(cc1N)oc1ccccc12
Result: 53.3 mg/kg/day

====

# Tested on: rodent lifetime carcinogenesis bioassay, tumor incidence TD50
# Protocol notes: carcinogenic potency in animals, long-term in vivo studies, CPDB compilation (AID 1745844)
# Measurement context: rat; strain Fischer 344; females; in drinking water; site: uterus; lesion: adenocarcinoma + adenoma; dosed 96 weeks; study length 97 weeks
Experimental readout: TD50

Query: Field request: TD50 | item: COc1cc(-c2ccc(N=Nc3c(S(=O)(=O)O)cc4cc(S(=O)(=O)O)cc(N)c4c3O)c(OC)c2)ccc1N=Nc1c(S(=O)(=O)O)cc2cc(S(=O)(=O)O)cc(N)c2c1O
Result: 493 mg/kg/day
